A collection of molecules and their measured Activity
assay.text: Cytotoxicity against BHK cells infected with Dengue virus replicon assessed as cell viability at 10 uM after 3 days by CellTiter 96 aqueous one solution cell proliferation assay relative to control
Assay type: cell-based, Mesocricetus auratus
condition.set: hamster, bhk, 72 h, 10 µM
Give the quantity in %, number only.

Recorded results for 2 molecules are shown here.
- molecule: "COC[C@H]1O[C@@H](n2cc(C)c(=O)n(C)c2=O)C[C@@H]1n1nncc1-c1ccc2cc(OC)ccc2c1"
  Activity [%]: 100
- molecule: "Cc1cn([C@H]2C[C@H](NC(=O)c3c4ccccc4cc4ccccc34)[C@@H](CO)O2)c(=O)[nH]c1=O"
  Activity [%]: 95

Enquiry: Activity for `Cc1cn([C@H]2C[C@H](NC(=O)c3c[nH]c4ccccc34)[C@@H](CO)O2)c(=O)[nH]c1=O` ?
Return: 96

Enquiry: For `Cc1cn([C@H]2C[C@H](n3nncc3-c3ccc(-c4ccccc4)cc3)[C@@H](CO[Si](C)(C)C(C)(C)C)O2)c(=O)[nH]c1=O` , what is its reported Activity?
Return: 47

Enquiry: Which Activity reading was recorded for the molecule `Cc1cn([C@H]2C[C@H](NC(=O)c3c[nH]c4ccccc34)[C@@H](CO[Si](C)(C)C(C)(C)C)O2)c(=O)[nH]c1=O` ?
Return: 27

Enquiry: Would you mind telling me what Activity value was observed for `COc1ccc2cc(-c3cn([C@H]4C[C@H](n5cc(C)c(=O)[nH]c5=O)O[C@@H]4CO[Si](C)(C)C(C)(C)C)nn3)ccc2c1` ?
Return: 96

Enquiry: What value of Activity has been recorded for this entry: `Cc1cn([C@H]2C[C@H](n3nncc3-c3cccc4ccccc34)[C@@H](CO)O2)c(=O)[nH]c1=O`
Return: 90

----------
assay.text: Cytotoxicity against BHK cells infected with West Nile virus replicon assessed as cell viability at 10 uM after 3 days by CellTiter 96 aqueous one solution cell proliferation assay relative to control
Format: cell-based, Mesocricetus auratus
condition.set: hamster, bhk, 72 h, 10 µM
readout: Activity (%)
API: value field is a number in %; no unit string.

Here's what some known entries look like.
- molecule: "Cc1cn([C@H]2C[C@H](N)[C@@H](CO[Si](C)(C)C(C)(C)C)O2)c(=O)[nH]c1=O"
  unit.of.measure: "%"
  measured: 100
- molecule: "Cc1cn([C@H]2C[C@H](NC(=O)c3c4ccccc4cc4ccccc34)[C@@H](CO[Si](C)(C)C(C)(C)C)O2)c(=O)[nH]c1=O"
  unit.of.measure: "%"
  measured: 100
- molecule: "Cc1cn([C@H]2C[C@H](NC(=O)c3c[nH]c4ccccc34)[C@@H](CO[Si](C)(C)C(C)(C)C)O2)c(=O)[nH]c1=O"
  unit.of.measure: "%"
  measured: 93
- molecule: "Cc1cn([C@H]2C[C@H](NC(=O)c3c4ccccc4cc4ccccc34)[C@@H](CO)O2)c(=O)[nH]c1=O"
  unit.of.measure: "%"
  measured: 92

Enquiry: What measured Activity goes with `Cc1cn([C@H]2C[C@H](NC(=O)C(c3ccccc3)(c3ccccc3)c3ccccc3)[C@@H](CO[Si](C)(C)C(C)(C)C)O2)c(=O)[nH]c1=O` ?
Return: 100

Enquiry: Can you look up the measured Activity of `COc1ccc2cc(-c3cn([C@H]4C[C@H](n5cc(C)c(=O)[nH]c5=O)O[C@@H]4CO[Si](C)(C)C(C)(C)C)nn3)ccc2c1` for me?
Return: 100

Enquiry: If you can, please state the reported Activity value of Cc1cn([C@H]2C[C@H](N3C(=O)CSC3c3ccc4[nH]ccc4c3)[C@@H](CO)O2)c(=O)[nH]c1=O (mixture of isomers) .
Return: 100
